The reported numbers originate from patent US5789431A.

- Tested on: DLD-1
- Assay Protocol: in vitro colon cancer cell growth inhibition (NCI screen)
Quick reference for cytotoxicity log GI50 among some molecules

# count of solved cases: 3
Molecule: O=C(Cc1ccc(F)cc1)NC1=C(Cl)C(=O)c2ccccc2C1=O
Data Value: -5.62 M
//
Molecule: COc1ccc(CNC2=C(NC(C)=O)C(=O)c3ccccc3C2=O)cc1
Data Value: -5.07 M
//
Molecule: COc1ccc(Cn2c(C)nc3c2C(=O)c2ccccc2C3=O)cc1
Data Value: -5.33 M

Q. Data request, read-out cytotoxicity log GI50, for CCC(C)NC1=C(NC(C)=O)C(=O)c2ccccc2C1=O (stereo not shown)
A. -4.56 M

---

Quick reference for cytotoxicity log GI50 among some compounds
- Tested on: MCF-7
- Assay Protocol: in vitro breast cancer cell growth inhibition (NCI screen)

# count of solved cases: 5
Compound: O=C(O)CCCc1nc2c(n1Cc1ccccc1)C(=O)c1ccccc1C2=O [Compound 57]
Endpoint Name: cytotoxicity log GI50
Data Value: -4.53 M

Compound: O=C(O)CCCc1nc2c(n1-c1ccccc1)C(=O)c1ccccc1C2=O [Compound 58]
Endpoint Name: cytotoxicity log GI50
Data Value: -4.49 M

Compound: CCNC1=C(NC(=O)c2ccc(F)cc2)C(=O)c2ccccc2C1=O [Compound 48]
Endpoint Name: cytotoxicity log GI50
Data Value: -4.52 M

Compound: COC(=O)CCC(=O)NC1=C(Nc2ccccc2)C(=O)c2ccccc2C1=O [Compound 54]
Endpoint Name: cytotoxicity log GI50
Data Value: -5.75 M

Compound: CCn1c(C)nc2c1C(=O)c1ccccc1C2=O [Compound 5]
Endpoint Name: cytotoxicity log GI50
Data Value: -6.17 M

Q. Data request, read-out cytotoxicity log GI50, for O=C(NC1=C(Cl)C(=O)c2ccccc2C1=O)c1ccccc1 [Compound 2e]
A. -4.72 M

Q. Now try COC(=O)CCC(=O)NC1=C(NCc2ccccc2)C(=O)c2ccccc2C1=O [Compound 55] .
A. -4.76 M

Q. Now try COC(=O)CCCC(=O)NC1=C(NCc2ccccc2)C(=O)c2ccccc2C1=O [Compound 51] .
A. -4.52 M

Q. Now try COC(=O)CCCC(=O)NC1=C(Nc2ccc(OC)cc2)C(=O)c2ccccc2C1=O [Compound 53] .
A. -4.77 M

Q. Now try COc1ccc(-n2c(CCCC(=O)O)nc3c2C(=O)c2ccccc2C3=O)cc1 [Compound 59] .
A. -4.49 M

---

Quick reference for cytotoxicity log GI50 among some compounds
- System: DLD-1
- Assay Protocol: in vitro colon cancer cell growth inhibition (NCI screen)
Quick reminder: number only, in M, skip the unit.

# count of solved cases: 5
Compound: CCC(c1ccc(F)cc1)c1nc2c(n1CC)C(=O)c1ccccc1C2=O (stereo not drawn) [Compound 65]
Assayed System: DLD-1
cytotoxicity log GI50 / M: -5.69

Compound: CCC(CC)n1c(C)nc2c1C(=O)c1ccccc1C2=O [Compound 10]
Assayed System: DLD-1
cytotoxicity log GI50 / M: -4.61

Compound: Cc1nc2c(n1CCC(C)C)C(=O)c1ccccc1C2=O [Compound 11]
Assayed System: DLD-1
cytotoxicity log GI50 / M: -4.95

Compound: CC(=O)NC1=C(NC(C)(C)C)C(=O)c2ccccc2C1=O [Compound 32]
Assayed System: DLD-1
cytotoxicity log GI50 / M: -4.80

Compound: CCC(C)(C)n1c(C)nc2c1C(=O)c1ccccc1C2=O [Compound 12]
Assayed System: DLD-1
cytotoxicity log GI50 / M: -4.81

Q. Data request, read-out cytotoxicity log GI50, for NC1=C(NC(=O)Cc2ccc(F)cc2)C(=O)c2ccccc2C1=O [Compound 3c]
A. -4.95

Q. Now try O=C1c2ccccc2C(=O)c2[nH]c(Cc3ccc(F)cc3)nc21 [Compound 4c] .
A. -5.40

Q. Now try NC1=C(NC(=O)Cc2ccccc2F)C(=O)c2ccccc2C1=O [Compound 3b] .
A. -4.78

Q. Now try CCCC(C)n1c(C)nc2c1C(=O)c1ccccc1C2=O (stereo not drawn) [Compound 9] .
A. -5.07

---

- System: IGROV1
- Assay Protocol: in vitro ovarian cancer cell growth inhibition (NCI screen)
Use satisfied when the recorded cytotoxicity log GI50 is no lower than -5 M; use not satisfied when it is lower.

Compound Smiles: COC(=O)CCCC(=O)NC1=C(Nc2ccc(OC)cc2)C(=O)c2ccccc2C1=O
Label: satisfied
//
Compound Smiles: O=C(NC1=C(Cl)C(=O)c2ccccc2C1=O)c1ccccc1
Label: satisfied
//
Compound Smiles: O=C(Cc1ccccc1F)NC1=C(Cl)C(=O)c2ccccc2C1=O
Label: not satisfied
//
Compound Smiles: Cc1nc2c(n1CCO)C(=O)c1ccccc1C2=O
Label: satisfied
//
Compound Smiles: CCc1nc2c(n1CC)C(=O)c1ccccc1C2=O
Label: satisfied

Q. Please indicate if the recorded cytotoxicity log GI50 for COc1cc(OC)cc(C(=O)NC2=C(Cl)C(=O)c3ccccc3C2=O)c1 meets or exceeds -5 M.
A. not satisfied

Q. Now try CCNC1=C(NC(=O)c2ccc(F)cc2)C(=O)c2ccccc2C1=O .
A. satisfied

Q. Now try CCCc1nc2c(n1CC)C(=O)c1ccccc1C2=O .
A. satisfied

Q. Now try NC1=C(NC(=O)Cc2ccc(F)cc2)C(=O)c2ccccc2C1=O .
A. satisfied

---

- System: NCI-H23
- Assay Protocol: in vitro non-small cell lung cancer cell growth inhibition (NCI screen)
Endpoint Name: cytotoxicity log GI50
Could you give the number and then its unit, please?

# count of solved cases: 2
Compound: O=C(O)CCc1nc2c(n1Cc1ccccc1)C(=O)c1ccccc1C2=O
cytotoxicity log GI50: -4.52 M
//
Compound: COc1ccc(CNC2=C(NC(C)=O)C(=O)c3ccccc3C2=O)cc1
cytotoxicity log GI50: -5.17 M

Q. Fill in the recorded cytotoxicity log GI50 for this compound, with NCI-H23 as test system: CC(=O)NC1=C(NCCN(C)C)C(=O)c2ccccc2C1=O
A. -4.94 M

Q. Now try CC(=O)NC1=C(NCC(C)C)C(=O)c2ccccc2C1=O .
A. -4.70 M

Q. Now try COc1ccc(-n2c(CCCC(=O)O)nc3c2C(=O)c2ccccc2C3=O)cc1 .
A. -4.36 M

Q. Now try O=C1c2ccccc2C(=O)c2[nH]c(Cc3ccccc3F)nc21 .
A. -4.56 M

Q. Now try O=C(NC1=C(Cl)C(=O)c2ccccc2C1=O)c1ccccc1 .
A. -4.62 M

---

- System: SK-OV-3
- Assay Protocol: in vitro ovarian cancer cell growth inhibition (NCI screen)
Quick reference for cytotoxicity log GI50 among some compounds
Quick reminder: number only, in M, skip the unit.

# count of solved cases: 6
Compound Smiles: CCn1c(-c2cc(OC)cc(OC)c2)nc2c1C(=O)c1ccccc1C2=O
Endpoint Name: cytotoxicity log GI50
Data Value: -5.41

Compound Smiles: Cc1nc2c(n1CCCl)C(=O)c1ccccc1C2=O
Endpoint Name: cytotoxicity log GI50
Data Value: -5.28

Compound Smiles: CCn1c(-c2ccc(F)cc2)nc2c1C(=O)c1ccccc1C2=O
Endpoint Name: cytotoxicity log GI50
Data Value: -4.68

Compound Smiles: CCCc1nc2c(n1CC)C(=O)c1ccccc1C2=O
Endpoint Name: cytotoxicity log GI50
Data Value: -4.66

Compound Smiles: CCn1c(CCl)nc2c1C(=O)c1ccccc1C2=O
Endpoint Name: cytotoxicity log GI50
Data Value: -6.29

Compound Smiles: CCNC1=C(NC(=O)c2ccc(F)cc2)C(=O)c2ccccc2C1=O
Endpoint Name: cytotoxicity log GI50
Data Value: -4.73

Now consider a different compound.
Q. Data request, read-out cytotoxicity log GI50, for CCNC1=C(NC(=O)c2ccccc2)C(=O)c2ccccc2C1=O
A. -4.62

---

Quick reference for cytotoxicity log GI50 among some compounds
- System: OVCAR-4
- Assay Protocol: in vitro ovarian cancer cell growth inhibition (NCI screen)
- Condition Summary: OVACR-4
Quick reminder: number only, in M, skip the unit.

Q. Fill in the recorded cytotoxicity log GI50 for this compound, with OVCAR-4 as test system: CCNC1=C(NC(=O)c2ccc(OC)cc2)C(=O)c2ccccc2C1=O
A. -4.46

Q. Now try Cc1nc2c(n1CCO)C(=O)c1ccccc1C2=O .
A. -4.58

Q. Now try Cc1nc2c(n1CCCl)C(=O)c1ccccc1C2=O .
A. -4.83

Q. Now try O=C1c2ccccc2C(=O)c2[nH]c(Cc3ccc(F)cc3)nc21 .
A. -4.83

Q. Now try CCn1c(C)nc2c1C(=O)c1ccccc1C2=O .
A. -6.49

---

Quick reference for cytotoxicity log GI50 among some compounds
- Tested on: SK-MEL-5
- Assay Protocol: in vitro melanoma cell growth inhibition (NCI screen)
Quick reminder: number only, in M, skip the unit.

# count of solved cases: 4
Compound Smiles: CCC(C)(C)NC1=C(NC(C)=O)C(=O)c2ccccc2C1=O
Endpoint Name: cytotoxicity log GI50
Data Value: -4.87

Compound Smiles: CCNC1=C(NC(=O)CCl)C(=O)c2ccccc2C1=O
Endpoint Name: cytotoxicity log GI50
Data Value: -4.78

Compound Smiles: CC(=O)NC1=C(NCC(C)C)C(=O)c2ccccc2C1=O
Endpoint Name: cytotoxicity log GI50
Data Value: -4.70

Compound Smiles: Cc1nc2c(n1CCC(C)C)C(=O)c1ccccc1C2=O
Endpoint Name: cytotoxicity log GI50
Data Value: -4.84

Now consider a different compound.
Q. Data request, read-out cytotoxicity log GI50, for CC(=O)NC1=C(NCCCl)C(=O)c2ccccc2C1=O
A. -4.77
